tested.system: α-thrombin (Homo sapiens, UniProt P00734)
Construct: α-Thrombin is the active form of the plasma serine protease zymogen, prothrombin; purchased Enzyme Research Labs (South Bend, Ind.)
test.summary: Confirmatory binding assay in column chromatographic format, peptides synthesized on A-Totda-Toyopearl
test.context: 200 μg α-thrombin applied; integration of A280
Ends that are not written are not given here.
outcome.measure: Absorbance, 280 nm 2% Acetic Acid

Inquiry: I'm curious: which Absorbance, 280 nm 2% Acetic Acid was measured for FEPANP (not fully specified (C-terminus)) [peptide synthesized on A-Totda-Toyopearl resin] tested on α-thrombin (Homo sapiens, UniProt P00734)?
Reply text: 0.45

Inquiry: I'm curious: which Absorbance, 280 nm 2% Acetic Acid was measured for VFPYAW (not fully specified (C-terminus)) [peptide synthesized on A-Totda-Toyopearl resin] tested on α-thrombin (Homo sapiens, UniProt P00734)?
Reply text: 3.59

Inquiry: I'm curious: which Absorbance, 280 nm 2% Acetic Acid was measured for VFPYVW (not fully specified (C-terminus)) [peptide synthesized on A-Totda-Toyopearl resin] tested on α-thrombin (Homo sapiens, UniProt P00734)?
Reply text: 1.81

* * *

tested.system: α-thrombin (Homo sapiens)
Construct: α-Thrombin is the active form of the plasma serine protease zymogen, prothrombin; purchased Enzyme Research Labs (South Bend, Ind.)
test.summary: Confirmatory binding assay in column chromatographic format, peptides synthesized on A-Totda-Toyopearl
test.context: 200 μg α-thrombin applied; integration of A280
Method: Confirmatory binding assays were performed in a column chromatographic format on a microbore HPLC using individual peptide sequences synthesized directly onto the Toyopearl 650 M Chelate resin which had been modified with Totda followed by an alanine residue (A-Totda-Toyopearl), at a final substitution density of 0.2 mmol/g resin. […] The endpoint was a dose-dependent increase in the acid eluate in the thrombin contactings, and quantification was by integration of the absorbance at 280 nm.
Ends that are not written are not given here.
outcome.measure: Absorbance, 280 nm 2% Acetic Acid
Just the number, please, no unit attached.

Inquiry: # input substance: SVRPFL (not fully specified (C-terminus)) [peptide synthesized on A-Totda-Toyopearl resin] ; wanted: its Absorbance, 280 nm 2% Acetic Acid
Reply text: 2.06

Inquiry: # input substance: HQLWGSH ; wanted: its Absorbance, 280 nm 2% Acetic Acid
Reply text: 1.76

Inquiry: # input substance: GFRNGP [GERNGP] ; wanted: its Absorbance, 280 nm 2% Acetic Acid
Reply text: 2.73

Inquiry: # input substance: LTPFAV (not fully specified (C-terminus)) [peptide synthesized on A-Totda-Toyopearl resin] ; wanted: its Absorbance, 280 nm 2% Acetic Acid
Reply text: 0.00

Inquiry: # input substance: VTPFAV (not fully specified (C-terminus)) [peptide synthesized on A-Totda-Toyopearl resin] ; wanted: its Absorbance, 280 nm 2% Acetic Acid
Reply text: 0.00

Inquiry: # input substance: ERPYHG (not fully specified (C-terminus)) [peptide synthesized on A-Totda-Toyopearl resin] ; wanted: its Absorbance, 280 nm 2% Acetic Acid
Reply text: 0.00

Inquiry: # input substance: PFPYAW (not fully specified (C-terminus)) [peptide synthesized on A-Totda-Toyopearl resin] ; wanted: its Absorbance, 280 nm 2% Acetic Acid
Reply text: 1.10

Inquiry: # input substance: PFPYGW (not fully specified (C-terminus)) [peptide synthesized on A-Totda-Toyopearl resin] ; wanted: its Absorbance, 280 nm 2% Acetic Acid
Reply text: 1.37

Inquiry: # input substance: ERPYKG (not fully specified (C-terminus)) [peptide synthesized on A-Totda-Toyopearl resin] ; wanted: its Absorbance, 280 nm 2% Acetic Acid
Reply text: 2.38

Inquiry: # input substance: PFPYVW (not fully specified (C-terminus)) [peptide synthesized on A-Totda-Toyopearl resin] ; wanted: its Absorbance, 280 nm 2% Acetic Acid
Reply text: 3.32

Inquiry: # input substance: YTPFAV (not fully specified (C-terminus)) [peptide synthesized on A-Totda-Toyopearl resin] ; wanted: its Absorbance, 280 nm 2% Acetic Acid
Reply text: 0.34

Inquiry: # input substance: GFRKGP (not fully specified (C-terminus)) [peptide synthesized on A-Totda-Toyopearl resin] ; wanted: its Absorbance, 280 nm 2% Acetic Acid
Reply text: 1.71

Inquiry: # input substance: LFAPTL ; wanted: its Absorbance, 280 nm 2% Acetic Acid
Reply text: 1.25

Inquiry: # input substance: RQLWQSH [RQLWGSH, variant of QLWGSH with added amino-terminal arginine, on A-Totda-Toyopearl resin] ; wanted: its Absorbance, 280 nm 2% Acetic Acid
Reply text: 2.83

Inquiry: # input substance: VFPYGW (not fully specified (C-terminus)) [peptide synthesized on A-Totda-Toyopearl resin] ; wanted: its Absorbance, 280 nm 2% Acetic Acid
Reply text: 2.01

* * *

tested.system: α-thrombin (Homo sapiens, UniProt P00734)
Construct: α-Thrombin is the active form of the plasma serine protease zymogen, prothrombin; purchased Enzyme Research Labs (South Bend, Ind.)
test.summary: Confirmatory binding assay in column chromatographic format, peptides synthesized on A-Totda-Toyopearl
test.context: 100 μg α-thrombin applied; integration of A280
Ends that are not written are not given here.
outcome.measure: Absorbance, 280 nm 1M NaCl Eluate

Some solved entries appear below for comparison.
VFPYGW (not fully specified (C-terminus)) [peptide synthesized on A-Totda-Toyopearl resin]
np
ERPYHG (not fully specified (C-terminus)) [peptide synthesized on A-Totda-Toyopearl resin]
0.18
VFPYVW (not fully specified (C-terminus)) [peptide synthesized on A-Totda-Toyopearl resin]
np
ERPYKG (not fully specified (C-terminus)) [peptide synthesized on A-Totda-Toyopearl resin]
0.23

Inquiry: # input substance: YTPFAV (not fully specified (C-terminus)) [peptide synthesized on A-Totda-Toyopearl resin] ; wanted: its Absorbance, 280 nm 1M NaCl Eluate
Reply text: np

* * *

tested.system: α-thrombin (Homo sapiens)
Construct: α-Thrombin is the active form of the plasma serine protease zymogen, prothrombin; purchased Enzyme Research Labs (South Bend, Ind.)
test.summary: Confirmatory binding assay in column chromatographic format, peptides synthesized on A-Totda-Toyopearl
test.context: 100 μg α-thrombin applied; integration of A280
Ends that are not written are not given here.
Can you tell me Absorbance, 280 nm 2% Acetic Acid for the items I'm about to list?
Just the number, please, no unit attached.

Inquiry: # input substance: SVRPFL (not fully specified (C-terminus)) [peptide synthesized on A-Totda-Toyopearl resin] ; wanted: its Absorbance, 280 nm 2% Acetic Acid
Reply text: 0.71

Inquiry: # input substance: VFPYVW (not fully specified (C-terminus)) [peptide synthesized on A-Totda-Toyopearl resin] ; wanted: its Absorbance, 280 nm 2% Acetic Acid
Reply text: 1.21

Inquiry: # input substance: LTPFAV (not fully specified (C-terminus)) [peptide synthesized on A-Totda-Toyopearl resin] ; wanted: its Absorbance, 280 nm 2% Acetic Acid
Reply text: 0.00

* * *

tested.system: α-thrombin (Homo sapiens, UniProt P00734)
Construct: α-Thrombin is the active form of the plasma serine protease zymogen, prothrombin; purchased Enzyme Research Labs (South Bend, Ind.)
test.summary: Confirmatory binding assay in column chromatographic format, peptides synthesized on A-Totda-Toyopearl
test.context: 100 μg α-thrombin applied; integration of A280
Ends that are not written are not given here.
outcome.measure: Absorbance, 280 nm 1M NaCl Eluate

SVRPFL (not fully specified (C-terminus)) [peptide synthesized on A-Totda-Toyopearl resin]
np
PFPYVW (not fully specified (C-terminus)) [peptide synthesized on A-Totda-Toyopearl resin]
np
GFRNGP [GERNGP]
0.00

* * *

tested.system: α-thrombin (Homo sapiens)
Construct: α-Thrombin is the active form of the plasma serine protease zymogen, prothrombin; purchased Enzyme Research Labs (South Bend, Ind.)
test.summary: Confirmatory binding assay in column chromatographic format, peptides synthesized on A-Totda-Toyopearl
test.context: 100 μg α-thrombin applied; integration of A280
Ends that are not written are not given here.
Can you tell me Absorbance, 280 nm 2% Acetic Acid for the items I'm about to list?
Just the number, please, no unit attached.

Inquiry: # input substance: HQLWGSH ; wanted: its Absorbance, 280 nm 2% Acetic Acid
Reply text: 0.95

Inquiry: # input substance: VTPFAV (not fully specified (C-terminus)) [peptide synthesized on A-Totda-Toyopearl resin] ; wanted: its Absorbance, 280 nm 2% Acetic Acid
Reply text: 0.00

Inquiry: # input substance: VFPYGW (not fully specified (C-terminus)) [peptide synthesized on A-Totda-Toyopearl resin] ; wanted: its Absorbance, 280 nm 2% Acetic Acid
Reply text: 1.46

Inquiry: # input substance: PFPYVW (not fully specified (C-terminus)) [peptide synthesized on A-Totda-Toyopearl resin] ; wanted: its Absorbance, 280 nm 2% Acetic Acid
Reply text: 2.14

Inquiry: # input substance: PFPYAW (not fully specified (C-terminus)) [peptide synthesized on A-Totda-Toyopearl resin] ; wanted: its Absorbance, 280 nm 2% Acetic Acid
Reply text: 1.05

Inquiry: # input substance: RQLWQSH [RQLWGSH, variant of QLWGSH with added amino-terminal arginine, on A-Totda-Toyopearl resin] ; wanted: its Absorbance, 280 nm 2% Acetic Acid
Reply text: 1.49

Inquiry: # input substance: LFAPTL ; wanted: its Absorbance, 280 nm 2% Acetic Acid
Reply text: 0.44

Inquiry: # input substance: PFPYGW (not fully specified (C-terminus)) [peptide synthesized on A-Totda-Toyopearl resin] ; wanted: its Absorbance, 280 nm 2% Acetic Acid
Reply text: 0.79

Inquiry: # input substance: GFRKGP (not fully specified (C-terminus)) [peptide synthesized on A-Totda-Toyopearl resin] ; wanted: its Absorbance, 280 nm 2% Acetic Acid
Reply text: 0.77

Inquiry: # input substance: ERPYHG (not fully specified (C-terminus)) [peptide synthesized on A-Totda-Toyopearl resin] ; wanted: its Absorbance, 280 nm 2% Acetic Acid
Reply text: 0.00

Inquiry: # input substance: YTPFAV (not fully specified (C-terminus)) [peptide synthesized on A-Totda-Toyopearl resin] ; wanted: its Absorbance, 280 nm 2% Acetic Acid
Reply text: 0.28

Inquiry: # input substance: FEPANP (not fully specified (C-terminus)) [peptide synthesized on A-Totda-Toyopearl resin] ; wanted: its Absorbance, 280 nm 2% Acetic Acid
Reply text: 0.29

Inquiry: # input substance: GFRNGP [GERNGP] ; wanted: its Absorbance, 280 nm 2% Acetic Acid
Reply text: 1.42

Inquiry: # input substance: VFPYAW (not fully specified (C-terminus)) [peptide synthesized on A-Totda-Toyopearl resin] ; wanted: its Absorbance, 280 nm 2% Acetic Acid
Reply text: 1.57

Inquiry: # input substance: ERPYKG (not fully specified (C-terminus)) [peptide synthesized on A-Totda-Toyopearl resin] ; wanted: its Absorbance, 280 nm 2% Acetic Acid
Reply text: 0.99
